- Subject of test: Tyrosine-protein phosphatase non-receptor type 6 (Homo sapiens, UniProt P29350)
- Sequence (P29350 whole entry, the tested form may be a part): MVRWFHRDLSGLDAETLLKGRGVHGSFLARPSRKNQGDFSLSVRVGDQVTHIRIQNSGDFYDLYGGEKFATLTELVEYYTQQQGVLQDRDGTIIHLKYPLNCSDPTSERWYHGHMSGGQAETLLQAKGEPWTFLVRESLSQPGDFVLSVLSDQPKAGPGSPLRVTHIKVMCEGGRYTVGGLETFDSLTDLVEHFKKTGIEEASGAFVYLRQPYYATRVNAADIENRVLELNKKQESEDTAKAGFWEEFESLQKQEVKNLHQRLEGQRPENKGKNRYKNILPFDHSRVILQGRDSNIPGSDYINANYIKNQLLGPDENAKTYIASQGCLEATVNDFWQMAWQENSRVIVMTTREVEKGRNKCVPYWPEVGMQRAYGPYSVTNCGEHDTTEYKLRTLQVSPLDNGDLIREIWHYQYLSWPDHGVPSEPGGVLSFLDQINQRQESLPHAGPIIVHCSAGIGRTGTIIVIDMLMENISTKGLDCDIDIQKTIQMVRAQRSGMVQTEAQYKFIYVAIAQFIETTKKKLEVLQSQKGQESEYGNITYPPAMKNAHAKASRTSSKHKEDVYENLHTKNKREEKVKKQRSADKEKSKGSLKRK
- Experimental details: Inhibition of SHP1 (unknown origin) using 6,8-difluoro-4-methylum-belliferylphosphate as substrate preincubated for 1 hr followed by substrate by fluorescence method
Metric: IC50 (µM)
Only the number, expressed in µM, is required.

Completed entries (count: 4):
entry_smiles=Cc1ccc(N2N=C(c3ccc([N+](=O)[O-])cc3)/C(=N/Nc3ccc(S(=O)(=O)O)cc3)C2=O)cc1 value_observed=9.83
entry_smiles=O=C1/C(=N\Nc2ccc(S(=O)(=O)O)cc2)C(c2ccc([N+](=O)[O-])cc2)=NN1c1ccc(Cl)cc1 value_observed=10.2
entry_smiles=O=C1/C(=N\Nc2ccc(S(=O)(=O)O)cc2)C(c2ccc([N+](=O)[O-])cc2)=NN1c1ccc([N+](=O)[O-])cc1 value_observed=2.08
entry_smiles=COc1ccc(N2N=C(c3ccc([N+](=O)[O-])cc3)/C(=N/Nc3ccc(S(=O)(=O)O)cc3)C2=O)cc1 value_observed=2.14

Lab note: next compound to report on.
Problem: What value of IC50 on Tyrosine-protein phosphatase non-receptor type 6 (Homo sapiens, UniProt P29350) does O=C1/C(=N\Nc2ccc(S(=O)(=O)O)cc2)C(c2ccc([N+](=O)[O-])cc2)=NN1c1ccc(C(F)(F)F)cc1 have?
Solution: 14.4

###

- Subject of test: Tyrosine-protein phosphatase non-receptor type 6 (Homo sapiens, UniProt P29350)
- Experimental details: Inhibition of recombinant His6-fused SHP1 catalytic domain (unknown origin) using p-nitrophenyl phosphate as substrate by spectrophotometric analysis
Metric: IC50

Problem: Could you tell me which IC50 is on file for NC(=O)[C@H](Cc1ccc(C(F)(F)P(=O)(O)O)cc1)NC(=O)[C@H](CC(=O)O)NC(=O)Cc1ccc(C(F)(F)P(=O)(O)O)cc1 ?
Solution: 11 µM

###

- Subject of test: Tyrosine-protein phosphatase non-receptor type 6 (Homo sapiens)
- Experimental details: Inhibition of His6-fused human SHP1 catalytic domain expressed in Escherichia coli cells using DiFMUP as substrate preincubated for 30 followed by substrate addition and by fluorescence method
pIC50: −log10 of the molar value.
Metric: pIC50

Problem: Could you tell me which pIC50 is on file for Cc1nc(N2CCC3(CC2)CO[C@@H](C)[C@H]3N)c(CO)nc1-c1cccc(Cl)c1Cl ?
Solution: < 5.00

###

- Subject of test: UniProtKB Q06124
- Experimental details: Allosteric inhibition of SHP2 (unknown origin) using DiFMUP as substrate preincubated for 60 mins in presence of activating peptide IRS-1 followed by substrate addition and measured after 60 mins by fluorescence method
Metric: IC50

Problem: Could you tell me which IC50 is on file for CC1(CN)CCN(c2ncc(Sc3cccc(Cl)c3Cl)[nH]c2=O)CC1 ?
Solution: < 50 nM

###

- Subject of test: Tyrosine-protein phosphatase non-receptor type 11 (Homo sapiens)
- Sequence (Q06124 whole entry, the tested form may be a part): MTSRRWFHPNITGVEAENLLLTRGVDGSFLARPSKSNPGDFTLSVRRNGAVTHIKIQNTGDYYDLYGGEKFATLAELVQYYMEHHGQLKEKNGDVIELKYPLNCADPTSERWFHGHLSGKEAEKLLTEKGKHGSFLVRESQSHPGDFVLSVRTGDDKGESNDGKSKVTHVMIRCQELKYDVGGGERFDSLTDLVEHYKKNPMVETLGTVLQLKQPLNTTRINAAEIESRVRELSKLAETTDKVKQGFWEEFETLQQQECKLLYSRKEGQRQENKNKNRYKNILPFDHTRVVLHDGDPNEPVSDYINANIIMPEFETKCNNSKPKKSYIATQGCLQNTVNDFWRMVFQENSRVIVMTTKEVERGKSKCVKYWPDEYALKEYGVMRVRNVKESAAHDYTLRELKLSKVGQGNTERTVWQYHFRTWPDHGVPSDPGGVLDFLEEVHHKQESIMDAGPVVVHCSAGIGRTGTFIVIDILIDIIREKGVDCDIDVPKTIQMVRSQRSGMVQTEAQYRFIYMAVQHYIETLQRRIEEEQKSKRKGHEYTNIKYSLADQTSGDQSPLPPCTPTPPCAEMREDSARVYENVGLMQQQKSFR
- Experimental details: Allosteric inhibition of full length N-terminal His6-tagged human SHP2 (2 to 593 residues) expressed in Escherichia coli using DiFMUP as substrate in presence of activating peptide preincubated for 60 mins followed by substrate addition amd measured after 30 mins by fluorescence method
Metric: pIC50
pIC50 is defined as minus the log10 of a concentration measured in mol/L.

entry_smiles=CC1(N)CCN(c2cnc3c(-c4cccc(Cl)c4Cl)n[nH]c3c2)CC1 value_observed=7.75

Problem: What value of pIC50 on Tyrosine-protein phosphatase non-receptor type 11 (Homo sapiens) does CC1(N)CCN(c2nc3sc(-c4cccc(Cl)c4Cl)nn3c2CO)CC1 have?
Solution: 7.65

Data credit: ChEMBL document CHEMBL4665677
